# Assayed Target: Recombinant human his-tagged IGF 1R extracellular domain protein (human) (UniProt P08069)
# Test Method Notes: SPR, captured IgG, IGF-1R ECD-his analyte, dissociation pH 6
Readout Name: kon (M⁻¹ s⁻¹)
Respond numerically; units are M⁻¹ s⁻¹ and should not be typed.

Recorded kon of VRDN-02516 (antibody, V domains shown) VH: EVQLVQSGGGLVKPGGSLRLSCAASGFTFSSFAMHWVRQAPGKGLEWISVIDTRGATYYADSVKGRFTISRDNAKNSLYLQMNSLRAEDTAVYYCHRLGNFYYGMDVWGQGTTVTVSS VL: EIVLTQSPGTLSVSPGERATLSCRASQSIGSSLHWYQQKPGQAPRLLIKYASQSLSGIPDRFSGSGSGTDFTLTISRLEPEDFAVYYCHQSSRLPHTFGQGTKVEIK , please.
117000

# next binder below
Recorded kon of VRDN-02566 (antibody, V domains shown) VH: EVQLVQSGGGLVKPGGSLRLSCAASGFTFSSFAMHWVRQAPGKGLEWISVIDTRGATYYADSVKGRFTISRDNAKNSLYLQMNSLRAEDTAVYYCHRLGNFYYGHDVWGQGTTVTVSS VL: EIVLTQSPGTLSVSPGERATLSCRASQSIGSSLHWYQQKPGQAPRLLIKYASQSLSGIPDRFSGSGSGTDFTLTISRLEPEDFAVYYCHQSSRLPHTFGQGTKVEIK , please.
2.95e+06
